Data export: pIC50 values recorded with PIK3CA (human) (UniProt P42336).
Sequence (P42336 whole entry, looked up): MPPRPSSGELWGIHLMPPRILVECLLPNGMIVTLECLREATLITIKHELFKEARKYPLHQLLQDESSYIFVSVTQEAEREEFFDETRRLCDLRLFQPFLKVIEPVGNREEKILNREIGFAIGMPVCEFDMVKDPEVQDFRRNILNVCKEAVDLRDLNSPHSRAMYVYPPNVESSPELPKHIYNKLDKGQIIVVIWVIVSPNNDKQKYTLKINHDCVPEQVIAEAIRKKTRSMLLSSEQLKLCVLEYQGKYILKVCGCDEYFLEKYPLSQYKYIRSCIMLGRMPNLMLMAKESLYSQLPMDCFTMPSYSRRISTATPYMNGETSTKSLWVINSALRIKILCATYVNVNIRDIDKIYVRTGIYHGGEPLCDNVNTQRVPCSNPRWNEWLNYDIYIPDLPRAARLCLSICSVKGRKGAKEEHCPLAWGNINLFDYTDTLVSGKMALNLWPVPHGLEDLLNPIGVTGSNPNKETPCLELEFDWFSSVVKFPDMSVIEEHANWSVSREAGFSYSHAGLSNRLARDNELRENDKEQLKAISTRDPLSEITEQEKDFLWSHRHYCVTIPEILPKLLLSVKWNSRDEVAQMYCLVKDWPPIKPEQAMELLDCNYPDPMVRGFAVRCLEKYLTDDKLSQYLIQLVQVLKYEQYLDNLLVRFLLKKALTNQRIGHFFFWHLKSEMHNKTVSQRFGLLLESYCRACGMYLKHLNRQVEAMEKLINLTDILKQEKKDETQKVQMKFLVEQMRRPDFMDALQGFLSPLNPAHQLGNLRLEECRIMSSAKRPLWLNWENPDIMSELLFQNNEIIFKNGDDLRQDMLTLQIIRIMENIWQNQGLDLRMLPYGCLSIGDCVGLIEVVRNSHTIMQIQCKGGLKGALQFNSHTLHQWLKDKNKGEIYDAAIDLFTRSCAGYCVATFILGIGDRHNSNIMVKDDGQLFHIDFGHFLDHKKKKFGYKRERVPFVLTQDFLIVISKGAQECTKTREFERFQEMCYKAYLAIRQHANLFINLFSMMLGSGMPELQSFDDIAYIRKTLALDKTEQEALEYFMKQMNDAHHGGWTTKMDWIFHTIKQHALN
One number for each entry, as −log10 of the molar value.

Examples from the recorded data:
Query Smiles	pIC50
CCc1nc2ccccc2n1-c1nc(N2CCOCC2)c2nc(CC3CN(C(C)(C)C(N)=O)C3)n(C)c2n1	6.98
CCc1nc2ccccc2n1-c1nc(N2CCOCC2)c2nc(C(=O)C3CCN(C(C)(C)C(=O)OC)CC3)n(C)c2n1	7.08
CCc1nc2ccccc2n1-c1nc(N2CCOCC2)c2nc(CN3C[C@@H]4C[C@H]3CN4C(C)(C)CO)n(C)c2n1	6.66

Let's switch to this compound now.
Quote PIK3CA (human) (UniProt P42336) pIC50 for entry Cn1c(CN2CCC(C(C)(C)O)CC2)nc2c(N3CCOCC3)nc(-c3n[nH]c4ccccc34)nc21 . 5.55

---

Measured pIC50 on PIK3CA (human) (UniProt P42336) follows.
Give bare numbers, as −log10 of the molar value.

# example entries with known answers
Query Smiles	Subject Of Test	Value Measured
Cc1c(CN2CCN(C(C)(C)C(N)=O)CC2)sc2c(N3CCOCC3)nc(-c3cncc4[nH]ccc34)nc12	PIK3CA (human) (UniProt P42336)	7.28
CCc1nc2ccccc2n1-c1nc(N2CCOCC2)c2nc(CCN3CCOCC3(C)C)n(C)c2n1	PIK3CA (human) (UniProt P42336)	6.31
CC(C)(C(N)=O)N1CCN(Cc2nc3nc(-c4cccc5nccn45)nc(N4CCOCC4)c3s2)CC1	PIK3CA (human) (UniProt P42336)	5.82
Cc1nc2ccccc2n1-c1nc(N2CCOCC2)c2oc(CN3CCN(C(C)(C)C(N)=O)CC3)cc2n1	PIK3CA (human) (UniProt P42336)	6.76
CN(C)C1CCN(Cc2cc3nc(-n4ccc5cnccc54)nc(N4CCOCC4)c3s2)CC1	PIK3CA (human) (UniProt P42336)	6.68
CCc1nc2ccccc2n1-c1nc(N2CCOCC2)c2nc(CN3CCN(C(C)(C)CO)CC3)[nH]c2n1	PIK3CA (human) (UniProt P42336)	6.67

Take each entry in turn and give its pIC50.
1. CCc1nc2ccccc2n1-c1nc(N2CCOCC2)c2nc(CC(=O)N3CCC(C(C)(C)O)CC3)sc2n1
2. CC(C)c1nc2ccccc2n1-c1nc(N2CCOCC2)c2nc(CN3CCN(C(C)(C)CO)CC3)[nH]c2n1

[6.88, 6.58]
